Values from patent US20220064329A1

Parameter: Kd. Scope: all listed entries.
# tested-on: T1, recombinant human activated Factor VII (FVIIa) (human, UniProt P08709 61-212; P08709 213-466, ten glutamate residues of the Gla domain may be gamma-carboxylated)
# T1 construct: chains tethered by a disulfide bond; also called Factor VIIa; rFVIIa
# T1 sequence 1: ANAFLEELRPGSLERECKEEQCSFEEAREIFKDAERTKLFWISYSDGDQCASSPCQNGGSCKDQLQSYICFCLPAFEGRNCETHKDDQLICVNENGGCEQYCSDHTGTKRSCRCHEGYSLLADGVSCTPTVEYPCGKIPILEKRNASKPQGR
# T1 sequence 2: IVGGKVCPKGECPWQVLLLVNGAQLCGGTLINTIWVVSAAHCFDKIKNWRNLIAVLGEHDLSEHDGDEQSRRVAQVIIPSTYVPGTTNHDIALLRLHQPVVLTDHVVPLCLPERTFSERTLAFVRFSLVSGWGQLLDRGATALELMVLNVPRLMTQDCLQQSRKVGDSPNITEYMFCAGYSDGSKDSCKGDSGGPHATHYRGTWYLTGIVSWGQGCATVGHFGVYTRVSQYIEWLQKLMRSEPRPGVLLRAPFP
# experiment-description: BLI (Fortebio)
Reply numerically in nM, unit not repeated.

VH SEQ ID NO 642 / VL SEQ ID NO 358 (antibody, IgG4, V domains shown, humanized 11F2; IgG4 S228P/kappa) VH: QVQLQESGPGLVKPSQTLSLTCTVSGYSISSDSAWSWIRQPPGKGLEWIGYIYYSGSTNYNPSLKSRVTISVDTSKNQFSLKLSSVTAADTAVYYCARSVNYYGNSFAVGYWGQGTSVTVSS VL: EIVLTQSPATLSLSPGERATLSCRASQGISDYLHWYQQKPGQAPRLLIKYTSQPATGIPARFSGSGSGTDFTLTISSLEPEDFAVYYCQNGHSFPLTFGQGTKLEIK :: 320

# input Give its Kd value. Item: VH SEQ ID NO 634 / VL SEQ ID NO 494 (antibody, IgG4, V domains shown, humanized 11F2; IgG4 S228P/kappa) VH: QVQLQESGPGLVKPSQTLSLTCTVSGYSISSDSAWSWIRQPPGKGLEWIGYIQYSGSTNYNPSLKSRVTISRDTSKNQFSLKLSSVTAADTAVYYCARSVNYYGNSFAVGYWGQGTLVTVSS VL: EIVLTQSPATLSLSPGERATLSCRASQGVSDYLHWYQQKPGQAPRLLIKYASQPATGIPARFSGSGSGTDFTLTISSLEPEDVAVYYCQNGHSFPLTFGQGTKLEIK
# output 1.3
